The reported measurements were obtained from PubChem BioAssay (NCI).

system: UO-31 renal; assay: NCI-60 one-dose screen, 48 h; details: 10 µM unless noted
Compounds without any hit were thinned out: in the full panel of roughly 83,000, 20% have a hit. Active and inactive are the calls of the source. Rule for the calls: active = growth percent below 10; inactive = the rest.
# output must be one of active, inactive

Exercise: How was COc1cc(NC(=O)CCSc2nc3ccccc3c(=O)n2Cc2ccccc2)cc(OC)c1OC classified in this test?
Key: inactive

Exercise: How was Nc1no[n+]([O-])c1-c1nnc2c(n1)-c1ccccc1C2=O classified in this test?
Key: inactive

Exercise: How was Clc1ccc(COc2ccc(Nc3ncnc4onc(-c5ccccc5)c34)cc2)cc1 classified in this test?
Key: inactive

Exercise: How was O=c1c(-c2nc3ccccc3[nH]2)cc2ccccc2n1Cc1cn(Cc2ccc(F)cc2)nn1 classified in this test?
Key: active

Exercise: How was NCCNc1nc2ccccc2c2c(=O)c3cc(F)cc(Cl)c3sc12 classified in this test?
Key: active

Exercise: How was CCOC(=O)c1cc2c(n1Cc1ccccc1)-c1oncc1CCC2 classified in this test?
Key: inactive

Exercise: How was O=C1c2ccc3c4c(ccc(c24)C(=O)N1CCCCO)C(=O)N(CCCCO)C3=O classified in this test?
Key: inactive
